- System: phospho-ERK in A549 (KRAS G12S) cells
- Method Notes: Cell-based pERK (pERK:tERK) in A549 cells
- Settings: 10 nM, 2 h; phospho- to total protein ratio normalized to DMSO control (Table 9)
- Protocol: Media components, reagents and buffers for Western Blot: All cell culture media components were obtained from ThermoFisher Scientific. […] Laemmli sample loading 4× buffer (ThermoFisher Scientific, Cat No. NP0007). […] Materials and Methods: A549 or A375 cells were seeded in 6-well plates at an appropriate seeding density on day 0. […] Protein concentration of the lysate was determined using Bradford Reagent (analyzed using SpectraMax M2E) and diluted to 1 mg/mL or pERK or 1.5 mg/mL for pMEK analysis. […]
Decision: A549-pERK (10 nM, 2 h) >= 50 yields fulfilled, all other cases yield not fulfilled.

Compound	Assigned Label
CCCN(C)Cc1c(Cc2cccc(NS(=O)(=O)NC)c2F)c(=O)oc2cc(OC(=O)N(C)C)ccc12 [Compound 81]	fulfilled
CN(C)C(=O)Oc1ccc2c(CN3CCNCC3)c(Cc3ccnc(NS(=O)(=O)C4CC4)c3F)c(=O)oc2c1 [Compound 150]	not fulfilled
CNS(=O)(=O)Nc1cccc(Cc2c(CNCCCCO)c3ccc(OC(=O)N(C)C)cc3oc2=O)c1F [Compound 71]	fulfilled
CNS(=O)(=O)Nc1cccc(Cc2c(CN(C)CC3CC3)c3ccc(OC(=O)N(C)C)cc3oc2=O)c1F [Compound 84]	fulfilled
CNS(=O)(=O)Nc1cccc(Cc2c(C)c3cc(Cl)c(OC(=O)N(C)C)cc3oc2=O)c1F [Compound 109]	not fulfilled
CNS(=O)(=O)Nc1cccc(Cc2c(CC(=O)N3CCN(C)CC3)c3ccc(OC(=O)N(C)C)cc3oc2=O)c1F [Compound 195]	fulfilled

* * *

- Tested on: phospho-ERK in A549 (KRAS G12S) cells
- Method Notes: Cell-based pERK (pERK:tERK) in A549 cells
- Settings: 10 nM, 2 h; phospho- to total protein ratio normalized to DMSO control (Table 9)

Smiles Data	A549-pERK (10 nM, 2 h)
CNS(=O)(=O)Nc1cccc(Cc2c(CN3CC(C)(C)C3)c3ccc(OC(=O)N(C)C)cc3oc2=O)c1F	104
CNS(=O)(=O)Nc1cccc(Cc2c(CN(C)C)c3ccc(OC(=O)N(C)C)cc3oc2=O)c1F	63.0
CNS(=O)(=O)Nc1cccc(Cc2c(CN(C)c3ccc(Cl)cc3)c3ccc(OC(=O)N(C)C)cc3oc2=O)c1F	56.5
CNS(=O)(=O)Nc1cccc(Cc2c(CN3CCOCC3=O)c3ccc(OC(=O)N(C)C)cc3oc2=O)c1F	100
CNS(=O)(=O)Nc1cccc(Cc2c(CNCC(=O)N3CCNCC3)c3ccc(OC(=O)N(C)C)cc3oc2=O)c1F	131
CNS(=O)(=O)Nc1cccc(Cc2c(CC(=O)N(C)C)c3ccc(OC(=O)N(C)C)cc3oc2=O)c1F	106
CNS(=O)(=O)Nc1cccc(Cc2c(C)c3cc(C)c(OC(=O)N(C)C)cc3oc2=O)c1F	5.78
CCS(=O)(=O)Nc1cccc(Cc2c(CN(C)C)c3ccc(OC(=O)N(C)C)cc3oc2=O)c1F	77.2
CNS(=O)(=O)Nc1cccc(Cc2c(CCNCC3CC3)c3ccc(OC(=O)N(C)C)cc3oc2=O)c1F	80.1
CNS(=O)(=O)Nc1cccc(Cc2c(CNCc3cccc(C(F)(F)F)c3)c3ccc(OC(=O)N(C)C)cc3oc2=O)c1F	105
CNS(=O)(=O)Nc1cccc(Cc2c(CN3CC(N)C3)c3ccc(OC(=O)N(C)C)cc3oc2=O)c1F	104
CCN(CC)Cc1c(Cc2cccc(NS(=O)(=O)NC)c2F)c(=O)oc2cc(OC(=O)N(C)C)ccc12	77.7
CNS(=O)(=O)Nc1cccc(Cc2c(CN3CC(C)C3)c3ccc(OC(=O)N(C)C)cc3oc2=O)c1F	94.6
CNS(=O)(=O)Nc1cccc(Cc2c(CC(=O)N(C)CC#N)c3ccc(OC(=O)N(C)C)cc3oc2=O)c1F	109
CNS(=O)(=O)Nc1cccc(Cc2c(CNCC3CC3)c3ccc(OC(=O)N(C)C)cc3oc2=O)c1F	94.2
